All values here come from patent US20180016312A1.

- TESTED ON: T1, human angiopoietin-2 (human, UniProt O15123 19-496, limits assumed)
- T1 construct: Bought recombinant protein with a His tag (detected by anti-HIS-tag antibody); also called human Ang-2; hAng-2
- T1 sequence (looked up): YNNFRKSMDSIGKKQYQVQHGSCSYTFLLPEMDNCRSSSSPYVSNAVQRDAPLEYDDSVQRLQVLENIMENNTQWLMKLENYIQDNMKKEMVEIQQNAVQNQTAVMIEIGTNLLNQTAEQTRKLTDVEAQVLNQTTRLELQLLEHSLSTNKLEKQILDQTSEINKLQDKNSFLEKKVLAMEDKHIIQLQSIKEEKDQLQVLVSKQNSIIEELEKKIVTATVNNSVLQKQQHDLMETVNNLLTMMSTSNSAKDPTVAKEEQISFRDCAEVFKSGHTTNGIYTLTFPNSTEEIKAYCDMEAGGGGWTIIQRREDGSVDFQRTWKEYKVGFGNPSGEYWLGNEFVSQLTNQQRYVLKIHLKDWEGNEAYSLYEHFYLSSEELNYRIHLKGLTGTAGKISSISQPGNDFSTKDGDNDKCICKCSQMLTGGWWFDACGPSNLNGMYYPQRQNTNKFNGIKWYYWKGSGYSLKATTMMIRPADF
- METHOD DESCRIPTION: competition ELISA; 0.5 nM hAng-2 pre-incubated with binder, free hAng-2 captured on hTie-2 Fc (competitor)
pIC50: −log10 of the molar value.
QUANTITY KIND: pIC50

BINDER	VALUE REPORTED
hNGAL lipocalin mutein SEQ ID NO: 13 (designed binder, Mutein of mature hNGAL) QDSTSDLIPAPPLSKVPLQQNFQDNQFHGKWYVVGVAGNWYLREDKDPIKMTATIYELKEDKSYDVTQVGFEQEKCKYSIHTFVPGSQPGEFTLGDIKSWPGDTSPLVRVVSTNYNQHAMVFFKGMMQDREVFAITLYGRTKELTSELKENFIRFSKSLGLPENHIVFPVPIDQCIDGSAWSHPQFEK	9.73
hNGAL lipocalin mutein SEQ ID NO: 14 (designed binder, Mutein of mature hNGAL) QDSTSDLIPAPPLSKVPLQQNFQDNQFHGKWYVVGMAGNWDLREDKDPIKMTATIYELKEDKSYDVTQVAFEQKKCKYSIHTFVPGSQPGEFTLGQIKSWPGDTSPLVRVVSTNYNQHAMVFFKGVMQNREVFAITLYGRTKELTSELKENFIRFSKSLGLPENHIVFPVPIDQCIDGSAWSHPQFEK	9.98
hNGAL lipocalin mutein SEQ ID NO: 6 (designed binder, Mutein of mature hNGAL) QDSTSDLIPAPPLSKVPLQQNFQDNQFHGKWYVVGQAGNYILREDKDPEKMWATIYELKEDKSYDVTGVSFGPKKCNYRIWTFVPGSQPGEFTLGGIKSSPGQTSTLVRVVSTNYNQHAMVFFKHVLQNREFFEITLYGRTKELTSELKENFIRFSKSLGLPENHIVFPVPIDQCIDGSAWSHPQFEK	10.20
